The reported measurements were obtained from paper PMC11544888.

- System: HaCaT keratinocytes
- Measurement Protocol: In vitro cytotoxicity assay (CellTiter viability) in HaCaT keratinocytes
- Assay type: cell-based, human
- Cond: 48 h treatment
Readout Label: IC50 (µM)
Reply numerically in µM, unit not repeated.

Please tell me: IC50 of NCC(=O)Nc1ccc(-n2nc(C(F)(F)F)cc2-c2ccc3c(ccc4ccccc43)c2)cc1 [AR-12] , system HaCaT keratinocytes? 9.96

====

- System: primary dermal fibroblasts
- Measurement Protocol: In vitro cytotoxicity assay (CellTiter viability) in polydactyly-derived primary dermal fibroblasts
- Format: cell-based, human
- Cond: 48 h treatment, CellTiter viability
Readout Label: IC50 (µM)
State the answer as a number, implicitly in µM.

Value lookup for IC50; key = NCC(=O)Nc1ccc(-n2nc(C(F)(F)F)cc2-c2ccc3c(ccc4ccccc43)c2)cc1 10.7
